assay_target: Muscarinic acetylcholine receptor M4 (Homo sapiens, UniProt P08173)
Sequence (P08173 whole entry): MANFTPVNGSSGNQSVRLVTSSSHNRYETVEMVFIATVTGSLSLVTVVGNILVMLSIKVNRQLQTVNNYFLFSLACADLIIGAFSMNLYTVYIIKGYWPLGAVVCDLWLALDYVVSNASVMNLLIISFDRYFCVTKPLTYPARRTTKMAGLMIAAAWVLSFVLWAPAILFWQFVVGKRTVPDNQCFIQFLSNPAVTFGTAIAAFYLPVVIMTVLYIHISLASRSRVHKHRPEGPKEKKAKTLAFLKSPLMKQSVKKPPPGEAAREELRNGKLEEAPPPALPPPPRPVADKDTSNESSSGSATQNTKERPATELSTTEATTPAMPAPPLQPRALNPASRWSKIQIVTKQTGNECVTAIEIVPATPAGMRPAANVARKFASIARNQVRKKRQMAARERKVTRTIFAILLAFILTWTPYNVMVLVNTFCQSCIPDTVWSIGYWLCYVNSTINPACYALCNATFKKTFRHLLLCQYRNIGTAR
metric: Ki (nM)

structure_as_smiles | assay_target | value_unit | result_value
CC(=O)Nc1ccc(-c2ccc(NC[C@@H]3CC34CCN(CC3CCOCC3)CC4)nn2)cc1 | Muscarinic acetylcholine receptor M4 (Homo sapiens, UniProt P08173) | nM | 43.3

###

assay_target: UniProt P10980
Sequence (P10980 whole entry): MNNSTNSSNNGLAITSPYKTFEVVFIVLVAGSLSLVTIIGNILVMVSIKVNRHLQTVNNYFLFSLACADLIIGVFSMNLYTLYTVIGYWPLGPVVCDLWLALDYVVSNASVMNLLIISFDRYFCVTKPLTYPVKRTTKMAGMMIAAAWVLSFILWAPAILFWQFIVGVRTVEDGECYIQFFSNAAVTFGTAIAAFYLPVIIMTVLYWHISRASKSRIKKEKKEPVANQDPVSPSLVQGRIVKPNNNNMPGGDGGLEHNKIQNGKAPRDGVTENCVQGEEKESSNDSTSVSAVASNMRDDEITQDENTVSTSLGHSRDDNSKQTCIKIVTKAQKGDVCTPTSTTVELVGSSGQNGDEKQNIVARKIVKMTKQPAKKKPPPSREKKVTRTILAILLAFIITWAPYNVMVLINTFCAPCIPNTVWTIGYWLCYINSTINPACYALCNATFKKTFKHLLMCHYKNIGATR
measurement_description: Inhibition of rat muscarinic acetylcholine M2 receptor expressed in CHO cells co-expressing Gqi5 preincubated with compound followed by acetylcholine addition at EC80 concentration by calcium mobilization assay
pIC50: −log10 of the molar value.

structure_as_smiles | assay_target | pIC50
CC(=O)Nc1ccc(-c2ccc(NC[C@@H]3CC34CCN(CC3CCOCC3)CC4)nn2)cc1 | UniProt P10980 | < 5.00

###

measurement_description: Elimination half life in rat at 3 mg/kg, iv
Format: ADME, organism-based
condition_description: in vivo, read-out: beta t1/2 (converted)
metric: half-life

structure_as_smiles | metric | result_value
CC(=O)Nc1ccc(-c2ccc(NC[C@@H]3CC34CCN(CC3CCOCC3)CC4)nn2)cc1 | half-life | 8.6 h

###

Listed here are compounds together with their documented Ratio IC50.
measurement_description: Selectivity ratio of IC50 for inhibition of human muscarinic acetylcholine M2 receptor to IC50 for inhibition of human muscarinic acetylcholine M4 receptor expressed in CHO cells co-expressing Gqi5 in the presence of acetylcholine at EC80 concentration by calcium mobilization assay
Type: cell-based

structure_as_smiles | Ratio IC50
CC(=O)Nc1ccc(-c2ccc(NC[C@@H]3CC34CCN(CC3CCOCC3)CC4)nn2)cc1 | > 140
c1ccc(-c2ccc(NC[C@@H]3CC34CCN(CC3CCOCC3)CC4)nn2)cc1 | > 80
Fc1ccc(F)c(-c2ccc(NC[C@@H]3CC34CCN(CC3CCOCC3)CC4)nn2)c1 | 60
Fc1ccc(Cl)c(-c2ccc(NC[C@@H]3CC34CCN(CC3CCOCC3)CC4)nn2)c1 | 900
Cn1cc2cc(-c3ccc(NC[C@@H]4CC45CCN(CC4CCOCC4)CC5)nn3)ccc2n1 | 50
Fc1cc(F)c(F)c(-c2ccc(NC[C@@H]3CC34CCN(CC3CCOCC3)CC4)nn2)c1 | 55

These entries and their values trace back to ChEMBL document CHEMBL5131409.
